Biological target: NAD-dependent protein deacylase sirtuin-6 (Homo sapiens)
Assay: Substrate activity at human N-terminal His-tagged SIRT6 (1 to 355 residues) expressed in Escherichia coli at 5 uM measured after 2 hrs in presence of NAD+ and trypsin by fluorescence assay
*1 amine or outer side, *2 acyl side, *3 side chain or, on linkers, in order; H or OH if unused. Where a SMILES comes first, the peptide text is derived from it. The star is where a group is joined. AMC = Cc1cc(=O)oc2cc(N*)ccc12; Suc = O=C(CCC(=O)[*:2])[*:1]; Decanoyl = CCCCCCCCCC(=O)*

>  <compound>
CCCCCCCCCC(=O)NCCCC[C@H](NC(=O)[C@H](CCC(N)=O)NC(=O)[C@@H](NC(=O)[C@H](CCCCN)NC(C)=O)C(C)C)C(=O)Nc1ccc2c(C)cc(=O)oc2c1 (Ac-KVQK(Decanoyl)-{AMC})

>  <Activity (RFU)>
0.74

$$$$
>  <compound>
CCCCCCCCCC(=O)NCCCC[C@H](NC(=O)[C@@H](NC(=O)[C@H](CO)NC(=O)[C@H](CO)NC(C)=O)[C@@H](C)CC)C(=O)Nc1ccc2c(C)cc(=O)oc2c1 (Ac-SSIK(Decanoyl)-{AMC})

>  <Activity (RFU)>
0.3

$$$$
>  <compound>
CC[C@H](C)[C@H](NC(C)=O)C(=O)N[C@@H](CCCNC(=N)N)C(=O)N[C@H](C(=O)N[C@@H](CCCCNC(=O)CCC(=O)O)C(=O)Nc1ccc2c(C)cc(=O)oc2c1)[C@@H](C)CC (Ac-IRIK(Suc)-{AMC})

>  <Activity (RFU)>
0.44

$$$$
>  <compound>
CCCCCCCCCC(=O)NCCCC[C@H](NC(=O)[C@H](CCCCN)NC(=O)[C@@H]1CCCN1C(=O)[C@H](CC(N)=O)NC(C)=O)C(=O)Nc1ccc2c(C)cc(=O)oc2c1 (Ac-NPKK(Decanoyl)-{AMC})

>  <Activity (RFU)>
0.42

$$$$
>  <compound>
CC[C@H](C)[C@H](NC(=O)[C@H](CC(C)C)NC(=O)[C@H](CCCNC(=N)N)NC(C)=O)C(=O)N[C@@H](CCCCNC(C)=O)C(=O)Nc1ccc2c(C)cc(=O)oc2c1 (Ac-RLIK(Ac)-{AMC})

>  <Activity (RFU)>
0.32

$$$$

Data origin: ChEMBL document CHEMBL4680222
